Each recorded value in this set is attributed to BindingDB's records for patent US20260060961.

study-target: GTPase KRas [G12C] (Homo sapiens, UniProt P01116, G12C)
Sequence (P01116 whole entry G12C): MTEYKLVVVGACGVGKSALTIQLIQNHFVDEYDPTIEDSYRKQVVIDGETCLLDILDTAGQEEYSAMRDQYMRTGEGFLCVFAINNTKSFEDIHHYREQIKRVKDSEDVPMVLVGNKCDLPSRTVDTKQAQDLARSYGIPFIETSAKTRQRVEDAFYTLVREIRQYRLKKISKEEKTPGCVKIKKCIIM
measurement-description: HTRF Nucleotide Exchange Assay
pIC50: −log10 of the molar value.
Catalogue of pIC50 values

> print(dat)
                            molecule.smiles  outcome.measure  reported.measurement
1  C=CC(=O)N1CC2(CC(c3nc(-c4ccc5c(cnn5C)c4)c(-c4cccc5ccccc45)n3C)C2)C1            pIC50                < 5.00

Q: I'd like to know its pIC50. The compound in question is C=CC(=O)N1CC2(CC(c3nc(-c4ccc(OCC(=O)N5CCOCC5)cc4)c(-c4cc(O)cc5ccccc45)n3C)C2)C1
A: > 6.00
